Origin of values: ChEMBL document CHEMBL1146318

This listing pairs compounds with measured Ratio IC50.
- Organism: Homo sapiens
- procedure-details: Selectivity for calcium channel Cav2.2 over calcium channel L type

compound	Ratio IC50
CC(C)CN1C(=O)CSC1c1cccnc1-c1ccc(C(F)(F)F)cc1 (stereo not drawn)	9.7
O=C1CSC(c2ccc(F)c(Br)c2)N1CCc1ccccn1 (stereo not drawn)	5.6
O=C1CSC(c2cnccc2-c2ccc(Br)cc2)N1C1CCCC1 (stereo not drawn)	16.3
CC(C)CN1C(=O)CSC1c1cccnc1-c1ccc(Cl)cc1 (stereo not drawn)	5.9
C=Cc1ccc(-c2cnccc2C2SCC(=O)N2CC(C)C)cc1 (stereo not drawn)	7.8
CCC(C)N1C(=O)CSC1c1cnccc1-c1ccc(Br)cc1 (stereo not drawn)	11.2
Cc1ccc(-c2ncccc2C2SCC(=O)N2CC(C)C)cc1 (stereo not drawn)	6.4
CC(C)CN1C(=O)CSC1c1cnccc1-c1ccc(C(F)(F)F)cc1 (stereo not drawn)	9.6
CN(C)c1ccc(-c2cnccc2C2SCC(=O)N2C2CCCC2)cc1 (stereo not drawn)	1.7
O=C1CSC(c2cnccc2-c2ccc(Br)cc2)N1C1CC1 (stereo not drawn)	3.6
COc1ccc(-c2cnccc2C2SCC(=O)N2CC(C)C)cc1 (stereo not drawn)	9.5
C=Cc1ccc(-c2ncccc2C2SCC(=O)N2CC(C)C)cc1 (stereo not drawn)	3.2
CC(C)CN1C(=O)C[S+]([O-])C1c1cnccc1-c1ccc(Br)cc1 (stereo not drawn)	3.8
CC(C)CNC(=O)CC1SC(c2cccc(C(F)(F)F)c2)N(CCc2ccccn2)C1=O (stereo not drawn)	1.6
O=C1CSC(c2cccc(C(F)(F)F)c2)N1CCc1ccccn1 (stereo not drawn)	4.8
CC(C)CN1C(=O)CSC1c1cnccc1-c1ccc(Cl)cc1 (stereo not drawn)	3.6
CC(C)CN1C(=O)CSC1c1cnccc1-c1ccc(Br)cc1 (stereo not drawn)	12.8
CC(C)CN1C(=O)CS[C@@H]1c1cnccc1-c1ccc(C(F)(F)F)cc1 (stereo in doubt; 58)	3.9
COc1ccc(CN2CCN(C(c3ccc(F)cc3)c3ccc(F)cc3)CC2)c(OC)c1OC	0.6
COc1ccc(-c2ncccc2C2SCC(=O)N2CC(C)C)cc1 (stereo not drawn)	2.3
CC(C)CN1C(=O)CSC1c1cnccc1-c1ccccc1 (stereo not drawn)	4.1
C=Cc1ccc(-c2ccncc2C2SCC(=O)N2CC(C)C)cc1 (stereo not drawn)	19.5
Cc1ccc(-c2ccncc2[C@H]2SCC(=O)N2CC(C)C)cc1 (stereo in doubt; 61)	31.8

----------
- system-name: Voltage-dependent N-type calcium channel subunit alpha-1B (Homo sapiens, UniProt Q00975)
- Sequence (Q00975 whole entry): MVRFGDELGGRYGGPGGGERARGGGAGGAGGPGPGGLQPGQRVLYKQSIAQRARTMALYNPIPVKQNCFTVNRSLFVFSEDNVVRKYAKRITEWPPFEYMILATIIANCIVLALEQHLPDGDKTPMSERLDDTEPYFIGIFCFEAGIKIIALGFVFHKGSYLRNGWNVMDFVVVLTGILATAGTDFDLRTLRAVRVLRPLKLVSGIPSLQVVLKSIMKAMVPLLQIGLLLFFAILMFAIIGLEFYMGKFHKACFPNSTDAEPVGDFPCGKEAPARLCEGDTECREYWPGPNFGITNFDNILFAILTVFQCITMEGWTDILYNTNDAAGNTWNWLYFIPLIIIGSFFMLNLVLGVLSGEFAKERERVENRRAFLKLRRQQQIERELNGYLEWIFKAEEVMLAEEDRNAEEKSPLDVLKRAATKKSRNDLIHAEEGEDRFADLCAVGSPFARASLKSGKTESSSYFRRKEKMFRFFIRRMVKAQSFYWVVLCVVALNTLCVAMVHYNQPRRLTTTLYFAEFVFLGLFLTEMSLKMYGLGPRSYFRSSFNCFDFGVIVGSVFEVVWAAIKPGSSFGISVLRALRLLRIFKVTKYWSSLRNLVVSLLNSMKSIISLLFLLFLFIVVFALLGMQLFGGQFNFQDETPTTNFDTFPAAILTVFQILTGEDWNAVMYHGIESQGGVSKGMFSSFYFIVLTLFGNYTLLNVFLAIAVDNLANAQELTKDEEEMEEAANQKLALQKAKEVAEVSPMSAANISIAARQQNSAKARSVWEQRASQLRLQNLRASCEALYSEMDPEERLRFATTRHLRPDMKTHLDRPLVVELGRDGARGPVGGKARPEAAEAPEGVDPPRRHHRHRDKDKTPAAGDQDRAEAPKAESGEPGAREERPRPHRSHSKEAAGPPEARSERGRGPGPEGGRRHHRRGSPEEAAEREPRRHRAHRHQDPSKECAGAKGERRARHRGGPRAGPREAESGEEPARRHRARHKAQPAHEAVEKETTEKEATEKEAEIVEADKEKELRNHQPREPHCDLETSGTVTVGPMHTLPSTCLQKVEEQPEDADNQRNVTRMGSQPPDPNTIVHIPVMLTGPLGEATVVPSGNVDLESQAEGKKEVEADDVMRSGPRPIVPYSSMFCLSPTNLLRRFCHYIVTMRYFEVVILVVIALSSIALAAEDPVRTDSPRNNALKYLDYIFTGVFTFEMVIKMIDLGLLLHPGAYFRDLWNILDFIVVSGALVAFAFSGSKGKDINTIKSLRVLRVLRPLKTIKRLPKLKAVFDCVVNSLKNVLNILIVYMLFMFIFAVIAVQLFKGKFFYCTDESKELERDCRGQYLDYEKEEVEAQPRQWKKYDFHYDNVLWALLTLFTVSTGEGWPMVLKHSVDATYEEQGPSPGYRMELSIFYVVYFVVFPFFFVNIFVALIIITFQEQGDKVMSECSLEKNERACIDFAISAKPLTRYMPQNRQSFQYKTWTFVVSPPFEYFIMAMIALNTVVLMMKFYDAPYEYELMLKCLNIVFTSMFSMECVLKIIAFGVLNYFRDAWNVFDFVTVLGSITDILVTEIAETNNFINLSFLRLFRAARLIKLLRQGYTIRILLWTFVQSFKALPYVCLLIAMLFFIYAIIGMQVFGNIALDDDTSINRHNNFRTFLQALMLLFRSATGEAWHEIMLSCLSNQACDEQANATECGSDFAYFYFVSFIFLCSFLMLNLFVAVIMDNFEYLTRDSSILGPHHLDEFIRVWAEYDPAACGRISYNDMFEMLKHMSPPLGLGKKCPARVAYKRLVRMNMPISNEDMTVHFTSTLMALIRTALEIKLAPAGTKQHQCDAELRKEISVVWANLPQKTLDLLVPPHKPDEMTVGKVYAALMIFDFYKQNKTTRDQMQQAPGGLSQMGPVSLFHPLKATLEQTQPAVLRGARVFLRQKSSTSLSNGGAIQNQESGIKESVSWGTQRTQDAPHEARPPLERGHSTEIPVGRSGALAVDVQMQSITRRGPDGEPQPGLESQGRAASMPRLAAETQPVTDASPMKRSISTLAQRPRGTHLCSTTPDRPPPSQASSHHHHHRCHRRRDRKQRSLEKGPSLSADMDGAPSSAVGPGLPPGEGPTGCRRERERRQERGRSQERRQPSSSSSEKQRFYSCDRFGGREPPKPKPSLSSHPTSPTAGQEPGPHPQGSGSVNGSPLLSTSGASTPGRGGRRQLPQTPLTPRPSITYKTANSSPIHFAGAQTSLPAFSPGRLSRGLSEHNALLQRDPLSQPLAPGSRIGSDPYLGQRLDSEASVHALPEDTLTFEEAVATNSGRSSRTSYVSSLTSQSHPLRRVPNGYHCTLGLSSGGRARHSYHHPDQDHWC
- procedure-details: Inhibition of calcium channel Cav2.2 in IMR32 cells
Kindly apply the following: yes (1) if IC50 is less than 700 nM, no (0) in every other case.

molecule	class-name
CC(C)CN1C(=O)CSC1c1ccncc1-c1ccc(Br)cc1 (centres undefined)	yes (1)
O=C1CSC(c2ccc(F)c(Br)c2)N1CCc1ccccn1 (centres undefined)	no (0)
Fc1ccc(C(c2ccc(F)cc2)N2CCN(C/C=C/c3ccccc3)CC2)cc1 [FLUNARIZINE]	no (0)
O=C1CSC(c2cnccc2-c2ccc(Br)cc2)N1C1CCCCC1 (centres undefined)	no (0)
C=Cc1ccc(-c2cnccc2C2SCC(=O)N2CC(C)C)cc1 (centres undefined)	yes (1)
CCC(C)N1C(=O)CSC1c1cnccc1-c1ccc(Br)cc1 (centres undefined)	yes (1)
O=C1CSC(c2cnccc2-c2ccc(Br)cc2)N1C1CC1 (centres undefined)	no (0)
CC(C)CN1C(=O)CSC1c1cnccc1-c1ccc(Br)cc1 (centres undefined)	yes (1)
Cc1ccc(-c2ccncc2[C@H]2SCC(=O)N2CC(C)C)cc1 (stereo in doubt; 60)	no (0)
O=C1CSC(c2cnccc2-c2ccc(Br)cc2)N1C1CCCC1 (centres undefined)	yes (1)
O=C1CSC(c2ccncc2-c2ccc(C(F)(F)F)cc2)N1C1CCCC1 (centres undefined)	no (0)
COc1ccc(-c2ncccc2C2SCC(=O)N2CC(C)C)cc1 (centres undefined)	no (0)
Cc1ccc(-c2ncccc2C2SCC(=O)N2CC(C)C)cc1 (centres undefined)	no (0)
CC(C)CNC(=O)CC1SC(c2cccc(C(F)(F)F)c2)N(CCc2ccccn2)C1=O (centres undefined)	no (0)
Cc1ccc(-c2ccncc2[C@H]2SCC(=O)N2CC(C)C)cc1 (stereo in doubt; 61)	no (0)
CC(C)CN1C(=O)CSC1c1cnccc1-c1ccc(Cl)cc1 (centres undefined)	yes (1)
CC(C)CN1C(=O)COC1c1cnccc1-c1ccc(Br)cc1 (centres undefined)	no (0)
CC(C)CN1C(=O)CSC1c1cccnc1-c1ccc(Cl)cc1 (centres undefined)	no (0)
Cc1ccc(-c2cnccc2C2SCC(=O)N2CC(C)C)cc1 (centres undefined)	yes (1)
